Quick reference for composite z-score among some compounds
target: Neurogenic locus notch homolog protein 3 (Homo sapiens) (UniProt Q9UM47); assay: small molecules binding NOTCH3 protein – biochemical, 635/667 nm fluorescence, primary screen (AID 1096); settings: small-molecule microarray, 635 nm fluorescence, higher = more signal
Sequence (Q9UM47 whole entry, looked up): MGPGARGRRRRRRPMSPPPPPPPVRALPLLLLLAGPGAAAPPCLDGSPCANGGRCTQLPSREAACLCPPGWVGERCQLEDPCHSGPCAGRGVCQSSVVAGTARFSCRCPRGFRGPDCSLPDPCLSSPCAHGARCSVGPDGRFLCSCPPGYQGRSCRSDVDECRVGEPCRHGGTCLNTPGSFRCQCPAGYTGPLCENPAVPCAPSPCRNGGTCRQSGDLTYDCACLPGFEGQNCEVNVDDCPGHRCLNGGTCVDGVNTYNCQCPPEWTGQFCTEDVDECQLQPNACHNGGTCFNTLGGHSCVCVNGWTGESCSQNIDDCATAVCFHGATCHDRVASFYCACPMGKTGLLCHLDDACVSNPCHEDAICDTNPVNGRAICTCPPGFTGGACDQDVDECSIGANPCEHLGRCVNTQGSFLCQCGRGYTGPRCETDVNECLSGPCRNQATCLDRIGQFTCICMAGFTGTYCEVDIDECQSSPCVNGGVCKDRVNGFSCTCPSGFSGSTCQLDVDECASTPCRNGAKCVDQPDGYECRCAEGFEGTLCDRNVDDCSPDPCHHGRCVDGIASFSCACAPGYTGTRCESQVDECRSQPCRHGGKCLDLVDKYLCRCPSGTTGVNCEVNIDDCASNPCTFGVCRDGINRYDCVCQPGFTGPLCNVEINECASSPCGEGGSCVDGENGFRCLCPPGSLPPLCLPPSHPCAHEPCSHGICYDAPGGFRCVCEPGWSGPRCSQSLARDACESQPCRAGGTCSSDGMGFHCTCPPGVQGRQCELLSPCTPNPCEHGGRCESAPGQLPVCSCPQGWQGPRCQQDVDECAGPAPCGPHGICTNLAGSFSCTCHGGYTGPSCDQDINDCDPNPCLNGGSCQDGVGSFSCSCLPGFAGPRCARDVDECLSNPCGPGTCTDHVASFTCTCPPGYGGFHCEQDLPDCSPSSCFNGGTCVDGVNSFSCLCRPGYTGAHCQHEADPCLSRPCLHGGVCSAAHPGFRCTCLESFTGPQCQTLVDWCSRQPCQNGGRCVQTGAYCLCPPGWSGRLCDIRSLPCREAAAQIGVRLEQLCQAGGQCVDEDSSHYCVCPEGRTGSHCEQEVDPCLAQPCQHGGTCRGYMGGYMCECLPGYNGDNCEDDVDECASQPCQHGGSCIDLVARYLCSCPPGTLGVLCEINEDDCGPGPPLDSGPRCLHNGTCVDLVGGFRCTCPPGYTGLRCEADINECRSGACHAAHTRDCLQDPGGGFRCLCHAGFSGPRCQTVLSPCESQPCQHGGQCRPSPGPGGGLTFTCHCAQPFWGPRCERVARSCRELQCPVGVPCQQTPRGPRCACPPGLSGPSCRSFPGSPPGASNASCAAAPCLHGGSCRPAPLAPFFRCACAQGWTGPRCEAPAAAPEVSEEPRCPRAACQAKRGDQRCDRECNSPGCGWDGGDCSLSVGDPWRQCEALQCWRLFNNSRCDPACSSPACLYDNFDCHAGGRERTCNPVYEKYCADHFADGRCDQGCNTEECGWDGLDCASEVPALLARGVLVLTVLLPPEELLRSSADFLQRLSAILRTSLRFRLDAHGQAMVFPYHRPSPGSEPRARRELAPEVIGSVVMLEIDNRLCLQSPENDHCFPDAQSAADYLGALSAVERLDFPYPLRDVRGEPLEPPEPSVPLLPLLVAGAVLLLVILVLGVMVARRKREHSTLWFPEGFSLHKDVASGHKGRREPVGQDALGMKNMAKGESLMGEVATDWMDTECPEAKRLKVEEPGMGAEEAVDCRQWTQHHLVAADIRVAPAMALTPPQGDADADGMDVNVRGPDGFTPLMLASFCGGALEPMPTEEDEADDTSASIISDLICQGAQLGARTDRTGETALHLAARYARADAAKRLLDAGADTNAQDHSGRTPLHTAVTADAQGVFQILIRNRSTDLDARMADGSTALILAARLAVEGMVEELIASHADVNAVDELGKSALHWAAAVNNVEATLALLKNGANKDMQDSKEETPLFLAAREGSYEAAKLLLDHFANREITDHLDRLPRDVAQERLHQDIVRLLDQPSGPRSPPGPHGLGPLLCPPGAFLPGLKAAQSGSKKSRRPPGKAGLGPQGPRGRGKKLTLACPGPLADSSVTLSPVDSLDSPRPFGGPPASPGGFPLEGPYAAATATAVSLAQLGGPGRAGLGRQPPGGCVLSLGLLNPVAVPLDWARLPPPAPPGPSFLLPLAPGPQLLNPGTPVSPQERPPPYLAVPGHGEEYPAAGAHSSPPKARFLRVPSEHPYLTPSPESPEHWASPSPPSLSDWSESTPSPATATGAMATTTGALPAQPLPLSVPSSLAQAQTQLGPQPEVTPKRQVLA

Observe how each entry below is paired with its result.
{"columns": ["input_smiles", "composite z-score"],
 "data": [
  ["CN(C)CCCNC(=O)[C@@]1(Cc2ccccc2I)c2ccccc2C(=O)N(C2CCCCC2)[C@H]1c1ccc(CO)cc1", 0.953],
  ["COc1ccc([Si](C)(C)[C@H]2[C@H](CCO)O[C@@]3(C(=O)N(Cc4ccc(NC(=O)[C@H](C)O)cc4)c4ccccc43)[C@@H]2C)cc1", 0.762],
  ["CN(C)CCCC[C@@H]1NC(=O)[C@H]2C[C@@H](C(=O)O)[C@@H](c3ccc(O)cc3)N2C1=O", 1.02],
  ["CN1C(=O)[C@@H]2[C@@H](CC(COc3ccccc3)=C3[C@@H](CCc4ccccc4)OB(O)C[C@@H]32)C1=O", -0.138],
  ["CCOC(=O)C1=CC[C@@H](c2ccc(OC)cc2)N(S(=O)(=O)c2ccc(C)cc2)[C@H]1c1ccc(C)cc1", 1.09],
  ["COCCCNC(=O)[C@@]1(CCS(=O)(=O)c2ccccc2)COC(c2ccc(OCCCO)cc2)=N1", 0.56]
]}

Identify measured composite z-score corresponding to CCOC(=O)C[C@H]1[C@H](OC(=O)c2ccccc2-c2ccccc2)[C@@H](NC(=O)c2ccc3ccccc3c2)c2cc(OCCCO)ccc2N1C(=O)Cc1ccc(OC)cc1 -0.626

----------
assay: probe aInhba binding on compound microarray – biochemical, small-molecule microarray, 635/667 nm fluorescence, primary screen (AID 1148); settings: higher = more signal;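 further: score merges 667nm spot fluorescence with signal-to-noise for antibody binding to printed compounds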
Each entry below lists one item and its recorded composite z-score value.
Lab note: jot down the number only; don't add units.

The cases that follow already have their composite z-score on record.
{"columns": ["compound", "quantity_measured", "quantitative_result"],
 "data": [
  ["CC1CC/C=C\\[C@H]2OC34C=CCN(c5ccc6ccccc6c5)C(=O)[C@H]3N(C(C)CO)C(=O)[C@@H]4C2C(=O)O1 (stereo not given in full)", "composite z-score", -0.0933],
  ["COc1ccc(C(=O)Nc2ccc(CN3C(=O)[C@@]4(O[C@@H](CCn5cc(CCO)nn5)[C@H]([Si](C)(C)c5ccc(OC)cc5)[C@H]4C)c4ccccc43)cc2)cc1", "composite z-score", -0.0791],
  ["COC(=O)[C@@]1(Cc2ccc(F)cc2)[C@H]2c3cc(C(=O)N4CCCC4)n(CCc4ccccn4)c3C[C@H]2CN1C(=O)c1ccccc1", "composite z-score", 0.0889]
]}

Provide one value: measured composite z-score of CC(C)=CCCC(C)=CC(O)C1C=CC2C(=O)NC(=O)C2N1Nc1ccccn1 (stereo not given) -0.154

Hello, please tell me recorded composite z-score for this one: CC(C)C(=C=CC[C@H](O)c1ccccc1OCCO)C[C@H](O)c1cc(Cl)cc(Cl)c1O 0.0966

Tell me composite z-score reported for COCCOC(=O)N1C(=O)[C@@]2(c3cc(C#CCC(C(=O)OC)C(=O)OC)ccc31)[C@H](c1ccc(O)cc1)N1[C@H](c3ccccc3)[C@H](c3ccccc3)OC(=O)[C@H]1[C@@H]2C(=O)Nc1nc2ccccc2s1 0.221

Given the compound O=C1O[C@@H](c2ccccc2)[C@@H](c2ccccc2)N2[C@@H](c3ccc(OCCO)cc3)[C@]3(C(=O)Nc4ccc(C#CCCO)cc43)[C@@H](C(=O)O)[C@H]12 , write its reported composite z-score. 1.34

Item COC(=O)[C@@]1(Cc2ccccc2)[C@H]2c3cc(C(=O)N(C)C)n(CCSC(=N)N)c3C[C@H]2CN1C(=O)c1ccccc1 : provide composite z-score 0.0444

Please report composite z-score for the following compound: Cc1ccc(S[C@]2(C(=O)NCC(F)(F)F)CC(=O)N(Cc3ccccc3C(F)(F)F)[C@@H]2c2ccc(CO)cc2)cc1 -0.179

Quickly give me recorded composite z-score for NC(=O)NCC#Cc1ccc2c(c1)[C@]1(C(=O)N2)[C@H](c2ccc(OCCO)cc2)N2[C@H](c3ccccc3)[C@H](c3ccccc3)OC(=O)[C@H]2[C@@H]1C(=O)NC[C@H](O)c1ccccc1 -0.0195

For the compound COc1ccc(C(O)C2C=CC3C(=O)N(C)C(=O)C3N2N(c2ccccc2)c2ccccc2)cc1 (stereo not given) , give its reported composite z-score. 0.105

Read off the recorded composite z-score for C=CC[C@@]12N=C(c3ccc(OCCCO)cc3)O[C@@H]1c1ccccc1N(CCC)C2=O -0.0185

Given the compound CC(C)[Si](C#CCCc1ccccc1)(O[C@H](c1ccccc1)c1cn(Cc2ccccc2)nn1)C(C)C , write its reported composite z-score. -0.179

Entry COc1ccc([Si](C)(C)[C@H]2[C@H](CC(=O)N3Cc4ccccc4C[C@H]3CO)O[C@@]3(C(=O)N(C)c4c(Br)cc(C)cc43)[C@@H]2C)cc1 needs its composite z-score filled in; supply it. -0.0087

Provide one value: measured composite z-score of CCCc1cc2c(n1CCc1ccc(Cl)cc1)C(C)C1CN(C(=O)c3ccccc3)C(C)(C(=O)OC)C21 (stereo not given) -0.0736
